biological target: GSK3α (Homo sapiens); experiment: biochemical; conditions: second value of the cell; 250 pM enzyme, 20 uM ATP, 20 hours at room temperature; read-out: GSK3β/α (nM): GSK3α IC50
The reader will find reported IC50 values listed item by item below.
endpointName: IC50

# mol, endpointName, result
records = [
    ("O=C(Nc1cnccc1N1C2CCC1CC2)c1ccnc(NC(=O)C2CC2)c1", "IC50", "5.7 nM"),
    ("Cn1cc(-c2cncc(NC(=O)c3ccnc(NC(=O)C4CC4)c3)c2)cn1", "IC50", "1.4 nM"),
    ("O=C(Nc1c(-c2ccccc2)ccnc1Cl)c1ccnc(NC(=O)C2CC2)c1", "IC50", "70 nM"),
    ("O=C(Nc1cncnc1N1CCC(F)(F)CC1)c1ccnc(NC(=O)C2CC2)c1", "IC50", "40 nM"),
    ("O=C(Nc1cncc(N2CCCCC2)c1)c1ccnc(NC(=O)C2CC2)c1", "IC50", "23 nM"),
]

###

target: GSK3α (Homo sapiens, UniProt P49840); assay: biochemical
Sequence (P49840 whole entry, species assumed): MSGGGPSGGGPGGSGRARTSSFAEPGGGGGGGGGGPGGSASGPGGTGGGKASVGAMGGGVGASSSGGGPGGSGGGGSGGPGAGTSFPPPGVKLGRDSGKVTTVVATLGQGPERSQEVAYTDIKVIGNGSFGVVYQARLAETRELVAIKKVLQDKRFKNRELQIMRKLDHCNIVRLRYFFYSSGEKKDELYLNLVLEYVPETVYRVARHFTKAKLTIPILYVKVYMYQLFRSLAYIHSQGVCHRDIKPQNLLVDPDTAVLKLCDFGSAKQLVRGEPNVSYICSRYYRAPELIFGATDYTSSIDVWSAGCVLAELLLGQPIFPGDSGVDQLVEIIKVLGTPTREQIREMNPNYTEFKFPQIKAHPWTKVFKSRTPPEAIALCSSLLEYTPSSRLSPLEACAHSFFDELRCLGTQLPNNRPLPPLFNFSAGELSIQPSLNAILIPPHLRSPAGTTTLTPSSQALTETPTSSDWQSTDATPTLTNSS
pIC50: −log10 of the molar value.
The reader will find reported pIC50 values listed item by item below.

# compound, experimentalTarget, pIC50
data = [
    ("O=C(Nc1cnccc1N1CCC(F)(F)CC1)c1ccnc(NC(=O)C2CC2)c1", "GSK3α (Homo sapiens, UniProt P49840)", 9.72),
    ("O=C(Nc1cncc(-c2cccc(F)c2F)c1)c1ccnc(NC(=O)C2CC2)c1", "GSK3α (Homo sapiens, UniProt P49840)", 9.13),
    ("O=C(Nc1cncc(-c2cc(F)ccc2F)c1)c1ccnc(NC(=O)C2CC2)c1", "GSK3α (Homo sapiens, UniProt P49840)", 9.12),
    ("C[C@H]1CN(c2ccncc2NC(=O)c2ccnc(NC(=O)C3CC3)c2)CCO1 (single isomer, unassigned)", "GSK3α (Homo sapiens, UniProt P49840)", 9.46),
]

###

molecular target: GSK3α (Homo sapiens, UniProt P49840); test: biochemical; details: second value of the cell; 250 pM enzyme, 20 uM ATP, 20 hours at room temperature; read-out: GSK3β/α (nM): GSK3α IC50
Response field label: string, one of t (IC50 strictly below 3 nM) or f.

# compound, classification
data = [
    ("Cn1cnc(NC(=O)c2ccnc(NC(=O)C3CC3)c2)c1", "f"),
    ("O=C(Nc1cnccc1-c1ccccc1)c1ccnc(NC(=O)C2CC(F)(F)C2)c1", "f"),
    ("N#Cc1cc(F)ccc1-c1ccncc1NC(=O)c1ccnc(NC(=O)C2CC2)c1", "f"),
    ("O=C(Nc1cncc(-c2cccc3[nH]ccc23)c1)c1ccnc(NC(=O)C2CC2)c1", "f"),
    ("O=C(Nc1cnccc1-c1ccc(I)cc1)c1ccnc(NC(=O)C2CC2)c1", "t"),
    ("CC(C)C(=O)Nc1cc(C(=O)Nc2cnc(F)cc2OCC(F)F)ccn1", "t"),
    ("O=C(Nc1nc2cnccc2s1)c1ccnc(NC(=O)C2CC2)c1", "f"),
    ("CC(=O)Nc1ccc(NC(=O)c2ccnc(NC(=O)C3CC3)c2)cn1", "f"),
    ("CC(C)C(=O)Nc1cc(C(=O)Nc2cnccc2-c2ccccc2)ccn1", "f"),
    ("O=C(Nc1cnccc1-c1cncnc1)c1ccnc(NC(=O)C2CC2)c1", "f"),
    ("O=C(Nc1cnccc1I)c1ccnc(NC(=O)C2CC2)c1", "t"),
    ("O=C(Nc1cncc(Cc2ccccc2)c1)c1ccnc(NC(=O)C2CC2)c1", "f"),
    ("O=C(Nc1cncc(-c2cccc(N3CCOCC3)c2)c1)c1ccnc(NC(=O)C2CC2)c1", "f"),
    ("O=C(Nc1cncc2ccccc12)c1ccnc(NC(=O)C2CC2)c1", "t"),
    ("O=C(Nc1cncc(-c2cc(Cl)ccc2F)c1)c1ccnc(NC(=O)C2CC2)c1", "t"),
    ("COc1ccc(NC(=O)c2ccnc(NC(=O)C3CC3)c2)cn1", "f"),
    ("CC(C)Oc1ccccc1-c1cncc(NC(=O)c2ccnc(NC(=O)C3CC3)c2)c1", "f"),
    ("O=C(Nc1cncc(-c2ccccc2C(F)(F)F)c1)c1ccnc(NC(=O)C2CC2)c1", "f"),
    ("O=C(Nc1c(N2CCOCC2)ccnc1F)c1ccnc(NC(=O)C2CC2)c1", "f"),
    ("O=C(Nc1cncc(N2CCOCC2)c1)c1ccnc(NC(=O)C2CC2)c1", "f"),
    ("COc1cncc(NC(=O)c2ccnc(NC(=O)C3CC3)c2)c1", "f"),
    ("CC(O)c1ccncc1NC(=O)c1ccnc(NC(=O)C2CC2)c1 (stereo not drawn)", "t"),
    ("O=C(Nc1cncc(Oc2ccccc2)c1)c1ccnc(NC(=O)C2CC2)c1", "f"),
    ("CC(C)C(=O)Nc1cc(C(=O)Nc2cnccc2N2CCC(F)(F)CC2)c(F)cn1", "t"),
    ("O=C(Nc1cncc(-c2c(F)cccc2F)c1)c1ccnc(NC(=O)C2CC2)c1", "f"),
    ("O=C(Nc1cncnc1)c1ccnc(NC(=O)C2CC2)c1", "f"),
    ("O=C(Nc1cncc(-c2ccc(OC(F)(F)F)cc2)c1)c1ccnc(NC(=O)C2CC2)c1", "f"),
    ("O=C(Nc1cnccc1-c1cc(Br)cc(Br)c1)c1ccnc(NC(=O)C2CC2)c1", "f"),
    ("CCC1(c2cc(Cl)ncc2NC(=O)c2ccnc(NC(=O)C3CCC(F)(F)C3)c2)OCCO1 (stereo not drawn)", "t"),
    ("CC(C)n1cc(NC(=O)c2ccnc(NC(=O)C3CC3)c2)cn1", "f"),
    ("O=C(Nc1cncc(-c2ccccc2Cl)c1)c1ccnc(NC(=O)C2CC2)c1", "t"),
    ("O=C(Nc1cnccc1-c1ccccc1)c1ccnc(NC(=O)C2CC2(F)F)c1 (stereo not drawn)", "f"),
    ("CC(C)C(=O)Nc1cc(C(=O)Nc2cncc(-c3ccccc3Cl)c2)ccn1", "t"),
    ("CC(C)c1ccc(-c2ccncc2NC(=O)c2ccnc(NC(=O)C3CC3)c2)cc1", "f"),
    ("O=C(Nc1cncc(-c2ccc(Cl)cc2)c1)c1ccnc(NC(=O)C2CC2)c1", "f"),
    ("O=C(Nc1cnccc1N1CCC(F)(F)C1)c1ccnc(NC(=O)C2CC2)c1", "f"),
]

###

test system: pTau; experiment: pTau assay (method not described); format: cell-based; settings: read-out: pTau

# compound, IC50
records = [
    ("CC(C)c1ccncc1NC(=O)c1ccnc(NC(=O)C2CC2)c1", "470 nM"),
    ("O=C(Nc1cncc(C2CC2)c1)c1ccnc(NC(=O)C2CC2)c1", "250 nM"),
    ("CC(C)c1ccc(-c2ccncc2NC(=O)c2ccnc(NC(=O)C3CC3)c2)cc1", "460 nM"),
    ("O=C(Nc1cnccc1-c1ccc(Cl)cc1)c1ccnc(NC(=O)C2CC(Cl)C2)c1 (stereo not drawn) [Example 224]", "15 nM"),
    ("CCC1(c2cc(Cl)ncc2NC(=O)c2ccnc(NC(=O)C(C)(C)C)c2)OCCO1", "250 nM"),
    ("CC1(C)CC(C(=O)Nc2cc(C(=O)Nc3cnccc3-c3ccccc3)ccn2)C1", "170 nM"),
    ("CN(C)C(=O)c1ccc(-c2ccncc2NC(=O)c2ccnc(NC(=O)C3CC3)c2)c(F)c1", "460 nM"),
    ("Cc1cncc(NC(=O)c2ccnc(NC(=O)C3CC3)c2)c1", "740 nM"),
    ("O=C(Nc1cncnc1)c1ccnc(NC(=O)C2CC2)c1", "1200 nM"),
]

###

The reader will find reported IC50 values listed item by item below.
molecular target: UniProt P49841; assay: GSK3β kinase assay (Caliper LabChip3000, fluoresceinated peptide substrate); format: biochemical; conditions: first value of the cell; 250 pM enzyme, 20 uM ATP, 20 hours at room temperature; read-out: GSK3β/α (nM): GSK3β IC50
Sequence (P49841 whole entry, species assumed): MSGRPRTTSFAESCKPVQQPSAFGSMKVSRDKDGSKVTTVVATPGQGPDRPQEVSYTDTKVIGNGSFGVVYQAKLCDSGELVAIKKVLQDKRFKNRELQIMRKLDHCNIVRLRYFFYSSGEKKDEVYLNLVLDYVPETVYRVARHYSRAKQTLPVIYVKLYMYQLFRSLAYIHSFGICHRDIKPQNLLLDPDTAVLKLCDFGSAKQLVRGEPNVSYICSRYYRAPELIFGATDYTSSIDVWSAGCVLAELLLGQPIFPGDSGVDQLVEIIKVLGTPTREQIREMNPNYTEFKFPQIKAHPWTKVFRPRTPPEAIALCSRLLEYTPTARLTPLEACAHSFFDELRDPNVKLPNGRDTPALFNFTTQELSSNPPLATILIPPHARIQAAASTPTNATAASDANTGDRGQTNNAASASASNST

# compound, IC50, nM
rows = [
    ("Cc1cccc2sc(NC(=O)c3ccnc(NC(=O)C4CC4)c3)nc12 [Example 184]", 800),
    ("Cn1c(-c2ccncc2NC(=O)c2ccnc(NC(=O)C3CC3)c2)cc2ccccc21 [Example 96]", 4.1),
    ("O=C(Nc1cncc(-c2cccnc2)c1)c1ccnc(NC(=O)C2CC2)c1 [Example 125]", 2),
    ("N#Cc1cc(F)ccc1-c1ccncc1NC(=O)c1ccnc(NC(=O)C2CC2)c1 [Example 89]", 470),
    ("O=C(Nc1cncc(-c2cccc(Cl)c2Cl)c1)c1ccnc(NC(=O)C2CC2)c1 [Example 138]", 10.5),
    ("O=C(Nc1cncc2ccccc12)c1ccnc(NC(=O)C2CCCC2)c1 [Example 228]", 1.6),
    ("O=C(Nc1cncc(-c2cccc3cccnc23)c1)c1ccnc(NC(=O)C2CC2)c1 [Example 143]", 190),
    ("O=C(Nc1cnccc1-c1cc(Cl)ccc1F)c1ccnc(NC(=O)C2CC2)c1 [Example 86]", 54),
    ("O=C(Nc1cnccc1-c1ccsc1)c1ccnc(NC(=O)C2CC2)c1 [Example 31]", 4.4),
]
